Give TGI for every item shown.
System: SK-MEL-5 melanoma
Experiment: NCI tumour cell line growth inhibition, 48 h

Please give TGI, item by item, for the list that follows.
1. CC(=O)O[C@H]1CC[C@@]2(C)C(=CC[C@@H]3C2CC[C@]2(C)Nc4c(cnn4-c4ccccc4)CC32)C1 (stereo partly drawn)
2. CCOC(=O)C1CSCCSC1
3. COc1ccccc1N=NC(C(=O)c1ccccc1)C(=O)c1ccccc1
4. Cn1c(C2CCCc3c2c2ccccc2n3C)cc2ccccc21 (stereo not drawn)
5. O=C1c2ccccc2C(=O)N1[C@@H](Cc1ccccc1)C(=O)n1cccc1CO
6. NC(C/C=C/P(=O)(O)O)C(=O)O (stereo not drawn)
7. Cc1ccc(N=Nc2c(C)nn(-c3ccccc3)c2C)c(Br)c1
8. COc1cc(C(=O)/C=C/c2c(-c3cccs3)nc3sccn23)cc(OC)c1OC

Result ::
["> 100 µM", "> 100 µM", "54.5 µM", "> 318 µM", "> 100 µM", "> 100 µM", "> 100 µM", "2.49 µM"]

---

Test system: 786-0 renal
Assay: NCI tumour cell line growth inhibition, 48 h
Give GI50 for every item shown.

// worked examples, GI50 included
Measured GI50 for this entry Oc1ccc(OCCOc2ccc(O)cc2)cc1 on 786-0 renal: 3.26 µM

Measured GI50 for this entry Cn1cc(-c2csc(-c3c[nH]c4ccc(F)cc34)n2)c2cccnc21 on 786-0 renal: 13.9 µM

Measured GI50 for this entry COc1cc(Nc2cc(O)c3c(=O)cc(-c4ccccc4)oc3c2)cc(OC)c1 on 786-0 renal: 1.34 µM

Please give GI50, item by item, for the list that follows.
1. COc1cc(Nc2ncc3c(C)nc(-c4cccc(C(F)(F)F)c4)n3n2)cc(OC)c1OC
2. O=C(/C=C/c1c(-c2ccccc2)[nH]c2ccccc12)S(=O)(=O)c1ccccc1

Result ::
["3.96 µM", "52.6 µM"]

---

Tested on: K-562 leukemia
Test: NCI tumour cell line growth inhibition, 48 h; in the data active = GI50 below about 0.43 µM; inactive = the rest
Would you mind answering with one of these outcomes? active, inactive

For orientation, consider the following solved cases.
Query :: Can you look up the reported call for CN(c1ccc(Cl)c(Cl)c1)c1cnc2cc(N)cc(N)c2n1 for me?
Result :: inactive

Query :: Can you look up the reported call for CC(=O)c1ccc(Nc2cc(-n3nnc4ccccc43)nc3ccccc23)cc1 for me?
Result :: inactive

Query :: Can you look up the reported call for Cc1ccc(N(CC(=O)Nc2ccc(S(=O)(=O)NC3CCN(C)CC3)cc2)S(=O)(=O)c2ccc(Cl)cc2)cc1 for me?
Result :: inactive

Query :: Can you look up the reported call for CCC(=O)OCC1OC(n2cnc3c(=S)nc(N)[nH]c32)C(OC(=O)CC)C1OC(=O)CC (centres undefined) for me?
Result :: inactive

Query :: Can you look up the reported call for O=[N+]([O-])c1cc([N+](=O)[O-])c(NN=C(c2ccc(O)cc2)c2ccc(O)cc2)cc1Cl for me?
Result :: inactive

Others:
Query :: Can you look up the reported call for COc1ccccc1/C=C/C(=O)c1ccc(Nc2nc(Nc3ccc(F)cc3)nc(Nc3ccc(F)cc3)n2)cc1 for me?
Result :: inactive

Query :: Can you look up the reported call for COc1ccc(-c2cc(C(=O)N3N=C(c4ccc(N)cc4)CC3c3ccc(Cl)cc3)c3ccccc3n2)cc1 (centres undefined) for me?
Result :: inactive

Query :: Can you look up the reported call for CCCCN1C=CCN(CCCC)C1 for me?
Result :: inactive

Query :: Can you look up the reported call for COc1cc(Nc2cc(O)c3c(=O)cc(-c4ccccc4)oc3c2)cc(OC)c1 for me?
Result :: active

Query :: Can you look up the reported call for Cc1ccc(NC(=O)c2ccc(CN3CC[C@H](N(C)C)C3)c(C(F)(F)F)c2)cc1Nc1nccc(-c2cncnc2)n1 for me?
Result :: active

Query :: Can you look up the reported call for COc1cc(/C=C/c2cc(/C=C/c3ccc(O)c(OC)c3)n(C(=O)Cc3ccccc3)n2)ccc1O for me?
Result :: inactive

Query :: Can you look up the reported call for N#Cc1cc(-c2ccnc(Nc3ccc(NC(=O)CCl)cc3)n2)ccc1N1CCCC1 for me?
Result :: inactive

Query :: Can you look up the reported call for Cn1c([N+](=O)[O-])cnc1/C=C1\Oc2ccc(Br)cc2C1=O for me?
Result :: active

Query :: Can you look up the reported call for O=C(CCCBr)Nc1ccccc1C#C/C=C\C#Cc1ccccc1C(F)(F)F for me?
Result :: inactive
